Test system: PPARa:RXRa (NR concentration 270 nM, RXRa partner concentration 90 nM)
method: PBM binding z-score (relative to random genomic background probes); higher = stronger binding; sequences stand for … in GC…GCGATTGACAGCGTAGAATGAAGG
measured_parameter: PBM binding z-score
Give bare numbers.

Solved entries (count: 3):
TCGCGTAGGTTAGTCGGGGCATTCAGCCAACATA :: 0.69
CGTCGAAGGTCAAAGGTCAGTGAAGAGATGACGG :: 7.42
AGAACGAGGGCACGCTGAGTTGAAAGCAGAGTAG :: 2.38

State the recorded PBM binding z-score for every item in the following list.
1. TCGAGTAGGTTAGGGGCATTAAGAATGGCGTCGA
2. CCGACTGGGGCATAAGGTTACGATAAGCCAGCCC
3. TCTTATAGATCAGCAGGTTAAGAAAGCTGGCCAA

1. 1.34
2. 2.41
3. 0.481

// input: 3 sequences below; output: PBM binding z-score for each
1. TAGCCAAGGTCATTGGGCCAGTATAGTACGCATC
2. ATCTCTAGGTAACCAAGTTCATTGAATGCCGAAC
3. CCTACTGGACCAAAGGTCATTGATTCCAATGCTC

1: 5.95; 2: 2.14; 3: 6.24

For each entry beneath this line, provide reported PBM binding z-score.
1. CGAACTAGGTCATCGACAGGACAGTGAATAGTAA
2. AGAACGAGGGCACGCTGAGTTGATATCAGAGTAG
3. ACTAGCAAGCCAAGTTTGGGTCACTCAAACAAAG
4. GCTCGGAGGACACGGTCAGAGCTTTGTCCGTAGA
5. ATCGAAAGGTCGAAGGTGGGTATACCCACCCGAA
6. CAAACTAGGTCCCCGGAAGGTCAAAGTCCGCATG
7. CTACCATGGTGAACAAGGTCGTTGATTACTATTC

1: 4.87; 2: 2.02; 3: 0.909; 4: -0.523; 5: 4.28; 6: 3.7; 7: 1.07

Here are 5 sequences. What values of PBM binding z-score were reported for them?
1. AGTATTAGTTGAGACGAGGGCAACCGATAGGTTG
2. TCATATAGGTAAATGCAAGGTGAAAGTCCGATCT
3. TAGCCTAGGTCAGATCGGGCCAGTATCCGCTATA
4. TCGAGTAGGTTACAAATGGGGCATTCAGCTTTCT
5. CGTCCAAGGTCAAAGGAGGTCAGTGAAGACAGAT

[0.567, 2.03, 1.69, 1.25, 6.08]

Report PBM binding z-score for each item below.
1. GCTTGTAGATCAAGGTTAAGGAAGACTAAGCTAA
2. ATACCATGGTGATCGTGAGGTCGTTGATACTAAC
3. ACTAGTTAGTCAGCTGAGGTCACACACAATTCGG

[1.68, 0.884, 3.87]

Report PBM binding z-score for every entry below.
1. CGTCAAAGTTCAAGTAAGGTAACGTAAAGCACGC
2. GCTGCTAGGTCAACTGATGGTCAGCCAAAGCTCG
3. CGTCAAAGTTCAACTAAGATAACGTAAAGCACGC
4. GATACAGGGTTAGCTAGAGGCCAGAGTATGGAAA
5. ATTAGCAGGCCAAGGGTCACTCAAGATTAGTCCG

5.15
3.65
5
0.87
4.73

For each of the sequences below, note its PBM binding z-score.
1. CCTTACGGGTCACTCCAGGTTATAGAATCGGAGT
2. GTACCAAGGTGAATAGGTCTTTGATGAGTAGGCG
3. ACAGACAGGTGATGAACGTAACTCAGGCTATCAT
4. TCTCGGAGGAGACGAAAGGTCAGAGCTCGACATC
5. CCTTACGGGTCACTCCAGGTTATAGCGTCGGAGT
6. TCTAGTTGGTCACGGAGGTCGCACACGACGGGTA

1: 4.4; 2: 1.23; 3: -0.156; 4: 3.49; 5: 4.65; 6: 2.04

Items follow; give PBM binding z-score for each.
1. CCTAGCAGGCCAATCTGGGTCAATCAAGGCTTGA
2. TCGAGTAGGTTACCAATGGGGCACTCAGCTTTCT
3. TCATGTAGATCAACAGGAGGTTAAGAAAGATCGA
4. TAGCCTAGGTCATTCAGGGACCAGTATAGAAAGC
5. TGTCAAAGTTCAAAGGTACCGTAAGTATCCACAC
6. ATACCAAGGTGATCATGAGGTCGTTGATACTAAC

[3.09, 0.966, 1.38, 3.62, 5.79, 1.89]
